Molecular target: recombinant human GITR (Cat No. 13643-H08H, Lot No. LC12JA2509, Sino Biological) (human) (UniProt Q9Y5U5)
Experiment: SPR Biacore 8K, single-cycle kinetics, IgG in supernatant captured on Protein A, GITR as analyte
Property measured: Kd (nM)
Only the number, expressed in nM, is required.

These recorded examples may help you get a feel for the data.
anti-GITR 51B VH4/VL5 humanized antibody (human IgG1, kappa) (antibody, V domains shown) VH: QVQLVQSGAEVKKPGASVKVSCKTTGYRFTGYWINWVRQPPGKGLEWIGEILPGSGATYYSENFKGKVTITADTSTDTAYMELSSLRSEDTAIYYCARKGGYYAMDYWGQGTLVTVSS VL: EIVLTQSPATLSLSPGERATLSCTASSSVSSSYFHWYQQKPGKAPKLWIYSTSNLESGVPDRFSGSGSGTDYTLTISSLQAEDVATYYCHLYHRSPRTFGGGTKVEIKR    1.26
anti-GITR 51B VH2/VL4 humanized antibody (human IgG1, kappa) (antibody, V domains shown) VH: QVQLVQSGAEVKKPGASVKLSCKTTGYRFTGYWIEWVRQPPGKGLEWIGEILPGSGATYYSENFKGKATITADTSTNTAYMEVSSLRSEDTAIYYCARKGGYYAMDYWGQGTLVTVSS VL: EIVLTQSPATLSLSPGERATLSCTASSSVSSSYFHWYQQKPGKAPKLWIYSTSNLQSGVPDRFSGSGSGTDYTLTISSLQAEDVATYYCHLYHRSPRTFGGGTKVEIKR    1.15

Now turn to the next binder.
INPUT: Return reported Kd; argument: anti-GITR 51B VH3/VL5 humanized antibody (human IgG1, kappa) (antibody, V domains shown) VH: QVQLVQSGAEVKKPGASVKVSCKTTGYRFTGYWIEWVRQPPGKGLEWIGEILPGSGATYYSENFKGKVTITADTSTDTAYMELSSLRSEDTAIYYCARKGGYYAMDYWGQGTLVTVSS VL: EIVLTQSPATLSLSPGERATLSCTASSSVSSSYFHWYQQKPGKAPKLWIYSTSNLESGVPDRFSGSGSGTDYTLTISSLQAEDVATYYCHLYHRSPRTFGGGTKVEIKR
OUTPUT: 0.916

Recorded values, source patent EP4339209A1.
